Tm: recorded values
Experiment notes: melting temperature; fluorescence melt of hairpins on a sequencing array, two-state fit, raised by 9.35 °C to match UV melts
Details: sodium 0.088 M
Parameter: Tm (°C)

Entry sequence | Parameter | Recorded result
GATCGGATCCCCGATC ((((((....)))))) | Tm | 54
GGAGACGGAAACGTTTCC (((.(((....))).))) | Tm | 49.5
CGGACGGAAACGTCCCG ((((((....))).))) | Tm | 50.7
GATCCTGGAAACAGAATC (((.(((....))).))) | Tm | 30.1
GGACCGCGAAAGCGTCC (((.(((....)))))) | Tm | 59.6
CGACCGGAAACGGGTCG ((((((....))).))) | Tm | 56.9
